- System: GLXMAW (Soybean, Williams)
- TEST_SUMMARY: Preemergence herbicidal evaluation
- Assay type: in vivo, Glycine max, (L.) Merr. cv Williams
- TEST_CONTEXT: rate 0.0156 kg/ha; rated 4-5 weeks after treatment
Please go through the items and note down their Preemergence herbicidal rating GLXMAW.
Number, no unit, nothing else.

Recorded Preemergence herbicidal rating GLXMAW for CCCCOC(=O)CN1C(=O)CSC1=Nc1cc(-n2c(=O)cc(C(F)(F)F)n(C)c2=O)c(F)cc1Cl [Compound 111] with GLXMAW (Soybean, Williams), please?
1.0

Recorded Preemergence herbicidal rating GLXMAW for C=CCN1C(=O)C(CC(=O)O)SC1=Nc1cc(-n2c(=O)cc(C(F)(F)F)n(C)c2=O)c(F)cc1Cl (centres unmarked) [Compound 62] with GLXMAW (Soybean, Williams), please?
0.0

Recorded Preemergence herbicidal rating GLXMAW for C=CCN1C(=O)C(CC(=O)Nc2ccccc2)SC1=Nc1cc(-n2c(=O)cc(C(F)(F)F)n(C)c2=O)c(F)cc1Cl (centres unmarked) [Compound 44] with GLXMAW (Soybean, Williams), please?
0.0

Recorded Preemergence herbicidal rating GLXMAW for Cn1c(C(F)(F)F)cc(=O)n(-c2cc(N=C3SCC(=O)N3CC(=O)OCC#N)c(Cl)cc2F)c1=O [Compound 109] with GLXMAW (Soybean, Williams), please?
1.5

Recorded Preemergence herbicidal rating GLXMAW for CCOC(=O)CN1C(=O)C(CC(=O)NS(=O)(=O)C(C)C)SC1=Nc1cc(-n2c(=O)cc(C(F)(F)F)n(C)c2=O)c(F)cc1Cl (centres unmarked) [Compound 117] with GLXMAW (Soybean, Williams), please?
0.0
